Target: T1, cyno IL-33 N-His (cynomolgus monkey)
T1 chain: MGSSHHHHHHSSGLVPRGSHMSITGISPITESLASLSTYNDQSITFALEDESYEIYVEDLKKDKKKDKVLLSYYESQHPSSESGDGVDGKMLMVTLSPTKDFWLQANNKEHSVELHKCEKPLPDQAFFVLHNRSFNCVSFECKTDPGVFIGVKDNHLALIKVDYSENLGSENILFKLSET
Test: SPR Biacore T200, 37 C
Value kind: Kd (nM)
Just the number in nM, nothing appended.

Exercise: Annotate the binder H4H9633P (antibody, IgG4, V domains shown, also called RG5) VH: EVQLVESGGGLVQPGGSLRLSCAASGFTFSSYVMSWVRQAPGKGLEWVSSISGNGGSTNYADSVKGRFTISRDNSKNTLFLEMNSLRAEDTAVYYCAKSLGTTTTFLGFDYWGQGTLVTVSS VL: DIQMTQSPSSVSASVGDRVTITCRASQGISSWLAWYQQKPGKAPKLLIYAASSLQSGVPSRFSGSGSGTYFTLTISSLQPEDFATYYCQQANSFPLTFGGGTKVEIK with its measured Kd.
Key: 42.7

Exercise: Item H4H9640P (antibody, IgG4, V domains shown, also called RG6) VH: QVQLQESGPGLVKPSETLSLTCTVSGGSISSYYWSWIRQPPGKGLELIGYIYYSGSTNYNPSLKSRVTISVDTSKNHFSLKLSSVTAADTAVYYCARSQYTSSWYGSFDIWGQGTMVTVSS VL: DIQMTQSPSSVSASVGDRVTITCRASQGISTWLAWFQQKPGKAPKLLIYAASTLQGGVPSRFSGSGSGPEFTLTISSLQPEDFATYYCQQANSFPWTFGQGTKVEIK : provide Kd
Key: 4.2

Exercise: Supply Kd value. Item: H4H9662P (antibody, V domains shown) VH: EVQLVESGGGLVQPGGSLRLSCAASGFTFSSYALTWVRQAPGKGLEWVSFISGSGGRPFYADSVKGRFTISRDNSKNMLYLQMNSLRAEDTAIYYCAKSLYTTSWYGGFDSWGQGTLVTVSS VL: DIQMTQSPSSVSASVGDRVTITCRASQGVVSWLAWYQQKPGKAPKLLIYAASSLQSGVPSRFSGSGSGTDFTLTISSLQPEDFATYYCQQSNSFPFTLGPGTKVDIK
Key: 2.31
